These entries and their values trace back to the supplement of paper PMC10567573.

B1: ZNF75A (parent)
chain: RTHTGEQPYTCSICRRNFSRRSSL

variants of: B1; experiment: protein stability index of a GFP-peptide fusion (GPS, HEK-293T) (PSI 1-6); higher = more stable; details: c terminus: a fixed tail appended;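 also: lentivirally expressed fusions sorted by FACS into six bins by GFP to DsRed ratio, PSI derived from sequencing read proportions per bin multiplied by bin number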
Listed below: protein stability index values for each entry.

| Item sequence | protein stability index |
| --- | --- |
| RTHTGEQWYTCSICRRNFSRRSSL | 3.05 |
| RTHRGEQPYTCSICRRNFSRRSSL | 3.08 |
| RTHTGEQFYTCSICRRNFSRRSSL | 3.09 |
| RTHTGEQPYTCSICRRNFSRRSPL | 2.94 |
